Provenance of the data: the RNAGym collection of RNA variant scans (doi:10.1093/nar/gkz1192)

B1: CPEB3 Ribozyme (parent)
chain: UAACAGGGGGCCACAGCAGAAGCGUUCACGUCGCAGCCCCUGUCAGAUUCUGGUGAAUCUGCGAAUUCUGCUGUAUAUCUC

Variants of: B1
Assay: self-cleavage, relative activity (ratio to wild type); higher = more cleavage; in vitro, sequencing
// map self-cleavage to label using low value (below 0.3), medium value (0.3 to below 0.5), high value (0.5 or more)

Please review the following examples before continuing.
UAACAGGGGGCCACAGCAGAAGCGUUCACGUCGCAGCCCCUGUCAGAUUAUGGUGAAUCUGCGAAUUCUGCUGUAUAGCUC :: high value
UAACAGGGGGGCACUGCAGAAGCGUUCACGUCGCAGCCCCUGUCAGAUUCUGGUGAAUCUGCGAAUUCUGCUGUAUAUCUC :: medium value
UAACAGGGGGCCACAGCUGAAGCGUUCACGUCGCAGCCCCCGUCAGAUUCUGGUGAAUCUGCGAAUUCUGCUGUAUAUCUC :: medium value

Assign a bin to UAACAGGGGGCCACAGCAGAGGCGUUCACGUCGCAGCCCCUGUCAGAUUCUGGUGAAGCUGCGAAUUCUGCUGUAUAUCUC
medium value

In plain terms, what class is UUACAGGGGGCCACAGCCGAAGCGUUCACGUCGCAGCCCCUGUCAGAUUCUGGUGAAUCUGCGAAUUCUGCUGUAUAUCUC ?
low value

Kindly identify the class of UAACCGGGGGCCACAGCAGAAGCGUUCACGUCGCAGCCCCUGUCAGAUUCUGGUGAACCUGCGAAUUCUGCUGUAUAUCUC .
high value

Each variant maps to one class by self-cleavage. Which class for UAACAGGGGGCCACAGCAGAAGCGUUCACGUCGCAGCCCCUGUCAGAUUCUGGUUAAUCUGCGAAUUCUGCUGCAUAUCUC ?
high value

Returns: class label. Input: UAACAGAGGGCCACAGCAGAAGCGUUCACGUCGCAGCCCCUGUCAGAUUCUGGUGAAUCUGCGAAUUCUGCUGUAUAUCUC
low value

Which bin should I file UAACAGGGGGCCACUGCAGAAGCGUUCACGUCGCAGCCCCUGUCAGAUUGUGGUGAAUCUGCGAAUUCUGCUGUAUAUCUC under?
low value

# bin label for UAACAGGGGGCCACAGCAGAAGCAUUCACGUCGCAGCCCCUGUCAGAUUCUGGAGAAUCUGCGAAUUCUGCUGUAUAUCUC
low value

Band assignment needed for UAACAGGGGGCCACAGCAGAAGCGUUCACGUCGCAGCCCCAGUCAGAUUCUGGUGAAUCUGCGAAUUCUGCGGUAUAUCUC please.
low value

Which self-cleavage category applies to UAACAGGGGGCCACAGCAGAAGCGUUCACGUCGCAGCCCCUGUCAGAUUCUGGUGAAUCUGCGAAUUCUGCUGUGUAUCAC here?
high value

Bin this entry: UAACAGGGGGCCACUGCAGAAGCGUUCACGUCGCAGCCCCUGUCAGAUUCUGGUGAAUCUGCGAAUUCUGCUGUAUAUUUC
high value
